# system.name: rat NaP2b (SLC34A2) (Rattus norvegicus, UniProt Q9JJ09)
# Construct: host or cells: HEK293
# Sequence (Q9JJ09 whole entry): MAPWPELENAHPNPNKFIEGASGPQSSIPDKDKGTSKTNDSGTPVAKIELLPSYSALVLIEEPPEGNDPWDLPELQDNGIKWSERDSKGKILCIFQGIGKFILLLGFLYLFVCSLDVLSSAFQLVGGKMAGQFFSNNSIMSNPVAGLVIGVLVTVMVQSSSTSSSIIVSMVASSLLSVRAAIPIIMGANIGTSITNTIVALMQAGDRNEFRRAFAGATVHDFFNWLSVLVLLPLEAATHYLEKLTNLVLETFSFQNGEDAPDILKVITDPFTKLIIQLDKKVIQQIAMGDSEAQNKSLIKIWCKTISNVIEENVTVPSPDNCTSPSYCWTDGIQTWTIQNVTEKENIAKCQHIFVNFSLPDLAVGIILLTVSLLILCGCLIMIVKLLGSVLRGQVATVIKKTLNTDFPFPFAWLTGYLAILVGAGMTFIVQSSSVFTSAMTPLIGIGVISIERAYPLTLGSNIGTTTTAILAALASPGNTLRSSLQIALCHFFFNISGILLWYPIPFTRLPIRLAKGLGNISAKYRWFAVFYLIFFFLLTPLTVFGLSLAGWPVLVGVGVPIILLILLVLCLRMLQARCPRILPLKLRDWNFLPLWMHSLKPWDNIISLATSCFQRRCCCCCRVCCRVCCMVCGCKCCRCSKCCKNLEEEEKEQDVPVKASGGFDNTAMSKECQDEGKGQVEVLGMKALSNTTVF
# procedure.text: NaP2b-mediated Pi transport (33P uptake) in transfected HEK293 cells, rat NaP2b
# Format: cell-based
# protocol.conditions: Structure (V) examples, Table 2; rat NaP2b, HEK293; read-out: pIC50 Range (converted)
measure: IC50

Given item `O=C(O)c1ccc(-c2cn(Cc3cccc(C(=O)Nc4ccc(N5CCCCC5)cc4C(=O)N/N=C/c4ccc(Cl)c(C(F)(F)F)c4)c3)nn2)cc1` , the value recorded as its IC50 is 100 to 794 nM

Given item `O=C(Nc1ccc(N2CCCCC2)cc1C(=O)N/N=C/c1ccc(Cl)c(C(F)(F)F)c1)c1cccc(Cn2cc(CO)nn2)c1` , the value recorded as its IC50 is 100 to 794 nM

Given item `O=C(Nc1ccc(N2CCCCC2)cc1C(=O)N/N=C/c1ccc(Cl)c(C(F)(F)F)c1)c1cccc(Cn2cnc(CCO)c2)c1` , the value recorded as its IC50 is 100 to 794 nM

Given item `O=C(Nc1ccc(N2CCCCC2)cc1C(=O)N/N=C/c1ccc(Cl)c(C(F)(F)F)c1)c1cccc(C#CCCO)c1` , the value recorded as its IC50 is 10 to 79.4 nM

Given item `O=C(Nc1ccc(N2CCCCC2)cc1C(=O)N/N=C/c1ccc(Cl)c(C(F)(F)F)c1)c1cccc(Cn2cc(CCCP(=O)(O)O)nn2)c1` , the value recorded as its IC50 is 10000 to 100000 nM

Given item `O=C(NCCN1CCOCC1)c1cccc(C(=O)Nc2ccc(N3CCCCC3)cc2C(=O)N/N=C/c2ccc(Cl)c(C(F)(F)F)c2)c1` , the value recorded as its IC50 is 100 to 794 nM

----------
# procedure.text: Determination of compound Cmax and AUC after oral gavage (plasma LC-MS/MS)
# Assay type: in vivo, Sprague-Dawley rats
# protocol.conditions: Sprague-Dawley, rat, plasma, po, Structure (I) examples, Table 15, actual oral dose 3-15 mg/kg, plasma 0.5-4 h
Overview of reported AUC across a group of compounds:

O=C(O)CCCNC(=O)Cc1cccc(SCc2cccc(C(=O)Nc3ccc(N4CCCCC4)cc3-c3cc(C(=O)NCc4cccc(C(F)(F)F)c4)ccn3)c2)c1 : > 50 ng·h/mL

Given item `COCCOCCOCCOCCOCCOCCOCCOCCNC(=O)[C@@H]1CCCN1CCN(C)C(=O)c1cccc(C(=O)Nc2ccc(N3CCCCC3)cc2-c2cc(C(=O)N[C@H]3CCCc4ccccc43)ccn2)c1` , the value recorded as its AUC is < 10 ng·h/mL

Given item `O=C(O)CCSCc1cccc(C(=O)Nc2ccc(N3CCCCC3)cc2-c2cc(C(=O)NCc3cccc(C(F)(F)F)c3)ccn2)c1` , the value recorded as its AUC is > 50 ng·h/mL

Given item `CN(CCN1CCC[C@H]1C(=O)N(C)CCOCCOCCOCCC(=O)O)C(=O)c1cccc(C(=O)Nc2ccc(N3CCCCC3)cc2-c2cc(C(=O)N[C@H]3CCCc4ccccc43)ccn2)c1` , the value recorded as its AUC is < 10 ng·h/mL

Given item `O=C(O)c1cccc(SCc2cccc(C(=O)Nc3ccc(Cl)cc3-c3cc(C(=O)NCc4cccc(C(F)(F)F)c4)ccn3)c2)c1` , the value recorded as its AUC is > 50 ng·h/mL
